Data credit: patent US20250171437A1

Below, each entry is listed with its recorded AC50.
# Target of assay: human PAH with the R408W mutation (A375 R408W cells) (Homo sapiens, UniProt P00439, R408W)
# Construct: expressed in transfected cells
# Sequence (P00439 whole entry R408W): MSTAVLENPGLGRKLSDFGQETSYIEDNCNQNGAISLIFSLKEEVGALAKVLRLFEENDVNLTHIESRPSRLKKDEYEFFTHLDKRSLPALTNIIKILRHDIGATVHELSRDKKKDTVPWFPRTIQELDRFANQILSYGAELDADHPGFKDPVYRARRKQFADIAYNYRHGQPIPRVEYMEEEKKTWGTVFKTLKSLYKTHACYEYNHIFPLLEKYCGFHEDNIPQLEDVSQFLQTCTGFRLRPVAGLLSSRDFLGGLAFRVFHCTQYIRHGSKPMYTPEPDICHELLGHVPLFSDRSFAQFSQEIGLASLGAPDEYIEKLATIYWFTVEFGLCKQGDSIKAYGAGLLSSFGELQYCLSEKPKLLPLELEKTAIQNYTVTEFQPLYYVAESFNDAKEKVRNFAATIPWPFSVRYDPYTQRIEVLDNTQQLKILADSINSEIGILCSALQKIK
# Assay explanation: Cell Based Phenylalanine Flux Assay
# Recorded conditions: A375 R408W cells; 24 hrs with compound, then 20 μM sepiapterin and 800 μM 13C9,15N-Phenylalanine for 4 hours; 13C-Tyrosine by LC-MS; average where tested multiple times

Would you please give the reported AC50 of "Cc1cccc2nc([C@@H]3c4nc[nH]c4CCN3C(=O)c3ccnn3C(F)(F)F)oc12" with human PAH with the R408W mutation (A375 R408W cells) (Homo sapiens, UniProt P00439, R408W)?
≤ 500 nM

State, for human PAH with the R408W mutation (A375 R408W cells) (Homo sapiens, UniProt P00439, R408W), measured AC50 of the molecule listed here: "Cc1ncoc1C(=O)N1CCc2[nH]cnc2[C@H]1c1nc2c(F)cccc2o1"
≤ 500 nM

Send back human PAH with the R408W mutation (A375 R408W cells) (Homo sapiens, UniProt P00439, R408W) AC50 of "Cc1ccc2oc([C@@H]3c4nc[nH]c4CCN3C(=O)c3nnc(-c4ccn(C)n4)o3)nc2c1" only.
≤ 500 nM

Write down measured AC50 (human PAH with the R408W mutation (A375 R408W cells) (Homo sapiens, UniProt P00439, R408W)) for this molecule. "Cc1nc(C(C)(C)O)oc1C(=O)N1CCc2[nH]cnc2[C@H]1c1nc2c(F)cccc2o1"
500 to 1000 nM

Continuing:
Print human PAH with the R408W mutation (A375 R408W cells) (Homo sapiens, UniProt P00439, R408W) AC50 for "[2H][C@@]1(c2nc3cccc(F)c3o2)c2nc[nH]c2CCN1C(=O)c1ocnc1C(F)F" .
≤ 500 nM

Find AC50 for "O=C(c1ocnc1C(F)F)N1CCc2[nH]cnc2[C@@H]1c1nc2c(F)ccc(F)c2o1" on human PAH with the R408W mutation (A375 R408W cells) (Homo sapiens, UniProt P00439, R408W) and write it down.
≤ 500 nM

* * *

# Target of assay: human PAH with the R408W mutation (A375 R408W cells) (Homo sapiens, UniProt P00439, R408W)
# Construct: expressed in transfected cells
# Assay explanation: Cell Based Phenylalanine Flux Assay
# Recorded conditions: A375 R408W cells; 24 hrs with compound, then 20 μM sepiapterin and 800 μM 13C9,15N-Phenylalanine for 4 hours; 13C-Tyrosine by LC-MS; average where tested multiple times
The entries below are paired with their reported AC50.

Please review the following examples before continuing.
Find the measured AC50 of "Cc1cc(F)c2oc([C@@H]3c4nc[nH]c4CCN3C(=O)c3ocnc3C(F)F)nc2c1" and report it.
≤ 500 nM

Tell me measured AC50 for "C[C@@H](O)c1nc(C(F)F)c(C(=O)N2CCc3[nH]cnc3[C@@H]2c2nc3c(F)cccc3o2)o1" please.
1000 to 5000 nM

Give me measured AC50, please, for this molecule: "Cc1ccc2oc([C@@H]3c4nc[nH]c4CCN3C(=O)c3oc(-c4cncn4C)nc3C(F)F)nc2c1"
≤ 500 nM

Assign AC50 to the following record: "CC(C)(O)c1nc(C(F)F)c(C(=O)N2CCc3[nH]cnc3[C@@H]2c2nc3cc(F)cc(F)c3o2)o1"
≤ 500 nM

Answer with the recorded AC50 for the molecule listed here: "Cn1nc(C2CC2)nc1C(=O)N1CCc2[nH]cnc2[C@H]1c1nc2cccc(F)c2o1"
1000 to 5000 nM

***
Look up and state reported AC50 for "COc1cc(F)c2oc([C@@H]3c4nc[nH]c4CCN3C(=O)c3ocnc3C(F)F)nc2c1"
≤ 500 nM

Answer with the recorded AC50 of "Cc1cc(F)cc2nc([C@H]3c4nc[nH]c4CCN3C(=O)c3oc(C(C)(C)O)nc3C(F)F)oc12" only.
1000 to 5000 nM

Return reported AC50. Input molecule: "CC(C)(O)c1nc(C(F)(F)F)c(C(=O)N2CCc3[nH]cnc3[C@H]2c2nc3cc(F)ccc3o2)o1"
≤ 500 nM

Give the reported AC50 for this molecule. "CC(C)(O)c1nc(Br)c(C(=O)N2CCc3[nH]cnc3[C@H]2c2nc3ccc(F)cc3o2)o1"
500 to 1000 nM

Dear colleague, please send me the reported AC50 for "O=C(c1cnn2cc(N3CCC(O)CC3)ccc12)N1CCc2[nH]cnc2[C@@H]1c1nc2c(F)ccc(F)c2o1" when you can.
≥ 5000 nM

Quote AC50 reported for "O=C(c1ocnc1C(F)F)N1CCc2[nH]cnc2[C@@H]1c1nc2cc(F)ccc2o1" please.
500 to 1000 nM

Please indicate AC50 recorded for "O=C(c1ocnc1C(F)F)N1CC2(CC2)c2[nH]cnc2[C@H]1c1nc2cccc(F)c2o1"
≤ 500 nM

Specify reported AC50 for the molecule shown: "COCc1ccc2c(C(=O)N3CCc4[nH]cnc4[C@H]3c3nc4cc(F)ccc4o3)cnn2c1"
1000 to 5000 nM

Note AC50 for the molecule shown: "Cc1ccc2oc([C@H]3c4nc[nH]c4CCN3C(=O)c3ncc(Cl)s3)nc2c1"
≥ 5000 nM
